# protocol details: Inhibition of leukotriene release in ICR mouse BMCMC […] after 6 hrs by ELISA
# Format: functional
quantity name: inhibition (INH) (%)
Answer format: numeric, % implied, no suffix.

Field: example entries. Status: answers known.
CC1=CC(=O)CC(C)(C)[C@@]1(O)/C=C/[C@@H](C)O[C@@H]1O[C@H](CO)[C@@H](O)[C@H](O)[C@H]1O [6S,9R-ROSEOSIDE]    67.4
CC1=CC(=O)CC(C)(C)[C@@]1(O)/C=C/[C@H](C)O[C@@H]1O[C@H](CO)[C@@H](O)[C@H](O)[C@H]1O [6S,9S-ROSEOSIDE]    70.3
CC1=CC(=O)CC(C)(C)[C@]1(O)/C=C/[C@H](C)O[C@@H]1O[C@H](CO)[C@@H](O)[C@H](O)[C@H]1O    36.7

Shifting focus to the compound that follows.
**Query** So what's the measured inhibition (INH) for this one? CC1=CC(=O)CC(C)(C)[C@]1(O)/C=C/[C@@H](C)O[C@@H]1O[C@H](CO)[C@@H](O)[C@H](O)[C@H]1O
**Result** 22.9
